pIC50: −log10 of the molar value.
Readout Name: pIC50

# input Item: "CC(C)(O)c1ccc(-c2nc3c(F)cc(F)cc3c(=O)[nH]2)cc1" Test system: Protein mono-ADP-ribosyltransferase PARP11 (Homo sapiens) Read-out: pIC50 Value: ?
# output < 5.00

====

Biological target: Poly [ADP-ribose] polymerase 2 (Homo sapiens)
Sequence (Q9UGN5 whole entry, the tested form may be a part): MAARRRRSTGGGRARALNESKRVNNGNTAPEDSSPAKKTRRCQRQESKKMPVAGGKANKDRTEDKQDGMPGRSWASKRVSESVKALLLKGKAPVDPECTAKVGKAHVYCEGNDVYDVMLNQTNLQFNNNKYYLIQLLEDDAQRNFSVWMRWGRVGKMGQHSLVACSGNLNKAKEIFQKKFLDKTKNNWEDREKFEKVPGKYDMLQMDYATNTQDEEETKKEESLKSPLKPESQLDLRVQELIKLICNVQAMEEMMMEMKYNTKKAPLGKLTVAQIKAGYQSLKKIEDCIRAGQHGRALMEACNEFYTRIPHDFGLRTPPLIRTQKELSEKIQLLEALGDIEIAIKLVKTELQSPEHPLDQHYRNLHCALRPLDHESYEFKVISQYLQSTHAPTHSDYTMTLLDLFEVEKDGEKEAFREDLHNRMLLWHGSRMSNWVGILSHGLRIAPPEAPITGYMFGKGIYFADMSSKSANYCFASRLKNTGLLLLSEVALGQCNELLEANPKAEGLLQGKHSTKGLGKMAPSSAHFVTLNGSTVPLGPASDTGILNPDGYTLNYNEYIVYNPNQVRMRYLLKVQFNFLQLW
Test: Inhibition of N-terminal GST-tagged recombinant human PARP2 (2 to 583 residues) expressed in Baculovirus infected Sf9 cells using biotinylated substrate after 1 hr by chemiluminescence method
Readout Name: pIC50
// scale note: pIC50 = -log10(conc_M); give the bare number

# input Could you tell me which pIC50 is on file for "CC(C)(O)c1ccc(-c2nc3c(F)cc(F)cc3c(=O)[nH]2)cc1" ?
# output 6.00

====

Target: Poly [ADP-ribose] polymerase tankyrase-1 (Homo sapiens)
Sequence (O95271 whole entry): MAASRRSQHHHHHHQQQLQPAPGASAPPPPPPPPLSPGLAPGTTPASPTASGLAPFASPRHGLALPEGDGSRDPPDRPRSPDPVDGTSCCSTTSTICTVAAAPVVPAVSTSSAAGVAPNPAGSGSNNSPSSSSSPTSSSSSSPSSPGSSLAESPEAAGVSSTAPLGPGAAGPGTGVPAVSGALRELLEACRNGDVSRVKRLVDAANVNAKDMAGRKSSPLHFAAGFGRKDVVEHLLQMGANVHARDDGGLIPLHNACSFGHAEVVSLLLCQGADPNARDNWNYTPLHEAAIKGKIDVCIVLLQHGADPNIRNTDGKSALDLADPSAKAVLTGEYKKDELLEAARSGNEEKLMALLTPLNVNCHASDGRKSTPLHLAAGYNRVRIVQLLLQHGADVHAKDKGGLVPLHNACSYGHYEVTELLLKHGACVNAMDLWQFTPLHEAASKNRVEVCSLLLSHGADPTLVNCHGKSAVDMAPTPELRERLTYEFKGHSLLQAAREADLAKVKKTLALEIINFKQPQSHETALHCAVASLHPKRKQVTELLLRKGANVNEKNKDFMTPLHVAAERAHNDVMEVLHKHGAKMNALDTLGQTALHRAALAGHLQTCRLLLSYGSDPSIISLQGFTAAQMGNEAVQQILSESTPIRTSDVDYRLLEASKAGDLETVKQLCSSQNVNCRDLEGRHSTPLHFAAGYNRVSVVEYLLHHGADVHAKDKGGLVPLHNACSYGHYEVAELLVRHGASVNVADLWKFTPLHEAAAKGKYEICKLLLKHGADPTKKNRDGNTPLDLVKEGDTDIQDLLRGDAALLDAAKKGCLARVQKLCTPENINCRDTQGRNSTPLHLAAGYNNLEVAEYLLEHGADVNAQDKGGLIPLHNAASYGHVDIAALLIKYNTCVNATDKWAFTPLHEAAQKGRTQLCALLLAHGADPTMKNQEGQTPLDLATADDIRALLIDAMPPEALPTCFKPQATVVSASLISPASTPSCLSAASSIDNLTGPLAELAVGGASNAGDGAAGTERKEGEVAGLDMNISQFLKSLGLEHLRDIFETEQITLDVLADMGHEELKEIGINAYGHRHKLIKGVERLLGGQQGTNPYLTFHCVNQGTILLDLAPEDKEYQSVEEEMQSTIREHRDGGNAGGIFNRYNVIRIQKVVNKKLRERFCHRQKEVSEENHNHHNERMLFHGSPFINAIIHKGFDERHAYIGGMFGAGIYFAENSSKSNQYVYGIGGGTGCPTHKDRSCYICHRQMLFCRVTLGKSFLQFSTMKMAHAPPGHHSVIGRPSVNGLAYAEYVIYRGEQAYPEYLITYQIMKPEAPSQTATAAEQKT
Design: species or system Sf9
Define the label as Criterion met when IC50 is strictly less than 20 nM and as Criterion not met in all remaining cases.

# input Below 20 nM on IC50? Entry "Cc1cc(F)cc2c(=O)[nH]c(-c3ccc(C(C)(C)O)cc3)nc12"
# output Criterion met

# input Say whether its IC50 is strictly beneath 20 nM. Entry: "CC(C)(O)c1ccc(-c2nc3c(F)cccc3c(=O)[nH]2)cc1"
# output Criterion met

# input Is IC50 strictly under 20 nM for the entry "CC(C)(O)c1ccc(-c2nc3c(Cl)cccc3c(=O)[nH]2)cc1" ?
# output Criterion met

# input Identify whether the compound "CC(C)(OCCO)c1ccc(-c2nc3ccc(F)cc3c(=O)[nH]2)cc1" records IC50 below 20 nM.
# output Criterion met

# input For this compound, is IC50 lower than 20 nM? "CC(C)(O)c1ccc(-c2nc3cccc(F)c3c(=O)[nH]2)cc1"
# output Criterion met

# input Check if IC50 falls below 20 nM for "CC(C)(C)c1ccc(-c2nc3ccc(F)cc3c(=O)[nH]2)cc1" .
# output Criterion met

# input Lab note: IC50 threshold 20 nM. Does this compound come in strictly under it? "CC(C)(O)c1ccc(-c2nc3ccc(F)c(F)c3c(=O)[nH]2)cc1"
# output Criterion met

# input Here's an entry: "CN1CCC(c2ccc(-c3nc4c(F)cc(F)cc4c(=O)[nH]3)cc2)CC1.O=C(O)C(F)(F)F" . Is its IC50 below 20 nM?
# output Criterion not met

# input Does "CC(C)(O)c1ccc(-c2nc3ccccc3c(=O)[nH]2)cc1" have IC50 strictly under 20 nM?
# output Criterion met

# input IC50 under 20 nM? Item: "Cl.O=c1[nH]c(-c2ccc(C3CCNCC3)cc2)nc2c(F)cc(F)cc12"
# output Criterion met

# input Dear reviewer, please state whether "COCCOC(C)(C)c1ccc(-c2nc3ccc(F)cc3c(=O)[nH]2)cc1" has IC50 strictly beneath 20 nM.
# output Criterion not met

====

Please provide measured IC50 for the entries that follow.
Target: Poly [ADP-ribose] polymerase 1 (Homo sapiens, UniProt P09874)
Sequence (P09874 whole entry): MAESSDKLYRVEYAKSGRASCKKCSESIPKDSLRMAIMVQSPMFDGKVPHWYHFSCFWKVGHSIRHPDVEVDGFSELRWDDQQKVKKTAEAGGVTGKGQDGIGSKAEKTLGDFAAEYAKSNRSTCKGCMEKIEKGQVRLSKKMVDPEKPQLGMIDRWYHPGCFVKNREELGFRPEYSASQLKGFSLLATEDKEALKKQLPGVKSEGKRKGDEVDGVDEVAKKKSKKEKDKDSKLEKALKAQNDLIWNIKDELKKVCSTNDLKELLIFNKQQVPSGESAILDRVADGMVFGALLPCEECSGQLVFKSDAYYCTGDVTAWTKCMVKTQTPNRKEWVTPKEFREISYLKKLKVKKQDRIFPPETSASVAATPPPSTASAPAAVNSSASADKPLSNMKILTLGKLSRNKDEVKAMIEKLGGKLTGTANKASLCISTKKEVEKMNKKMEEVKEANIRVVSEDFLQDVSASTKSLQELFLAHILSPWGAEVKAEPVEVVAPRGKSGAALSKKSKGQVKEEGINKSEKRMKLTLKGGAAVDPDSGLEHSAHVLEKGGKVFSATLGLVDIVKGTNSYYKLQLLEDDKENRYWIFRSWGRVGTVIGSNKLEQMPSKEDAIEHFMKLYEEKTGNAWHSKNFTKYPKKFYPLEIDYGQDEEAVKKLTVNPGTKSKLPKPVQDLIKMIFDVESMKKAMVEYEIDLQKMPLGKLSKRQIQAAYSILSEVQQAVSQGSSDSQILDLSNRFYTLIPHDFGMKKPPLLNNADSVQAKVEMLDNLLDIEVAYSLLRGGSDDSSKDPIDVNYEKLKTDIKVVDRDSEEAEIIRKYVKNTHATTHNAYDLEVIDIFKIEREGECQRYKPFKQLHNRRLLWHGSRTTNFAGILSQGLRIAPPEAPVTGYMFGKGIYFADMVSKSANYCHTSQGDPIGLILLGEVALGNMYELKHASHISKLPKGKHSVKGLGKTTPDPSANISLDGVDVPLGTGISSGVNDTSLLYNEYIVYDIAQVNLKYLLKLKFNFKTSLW
Test: Inhibition of recombinant human full-length Myc/His-tagged Parp-1 expressed in baculovirus infected Sf21 insect cells assessed as reduction in auto-PARsylation using activated DNA as substrate incubated for 150 mins in presence of NAD and bio-NAD as co-substrate by TR-FRET assay
Respond with the bare value in nM.

# input Please look up its IC50: "CC(C)(O)c1ccc(-c2nc3ccc(F)c(F)c3c(=O)[nH]2)cc1"
# output 512

# input What measured IC50 goes with "Cc1cc(F)cc2c(=O)[nH]c(-c3ccc(N4CCN(C)CC4)cc3)nc12" ?
# output 120

# input Would you mind telling me what IC50 value was observed for "CN1CCC(c2ccc(-c3nc4c(F)cc(F)cc4c(=O)[nH]3)cc2)CC1.O=C(O)C(F)(F)F" ?
# output 3700

# input Field request: IC50 | item: "COCCOC(C)(C)c1ccc(-c2nc3ccc(F)cc3c(=O)[nH]2)cc1"
# output 5700

# input Name the recorded IC50 for "CC(C)(O)c1ccc(-c2nc3c(Cl)cccc3c(=O)[nH]2)cc1" .
# output 410

# input If you can, please state the reported IC50 value of "CC(C)(O)c1ccc(-c2nc3c(F)cccc3c(=O)[nH]2)cc1" .
# output 1100

# input Please give the measured IC50 for this molecule: "CC(C)(O)c1ccc(-c2nc3cccc(F)c3c(=O)[nH]2)cc1"
# output 830
